The reported measurements were obtained from patent US9073893B2.

# TEST: Pharmacokinetics and oral bioavailability in the mouse
# Type: in vivo
# MEASUREMENT PARAMETERS: male, Balb, Nu/Nu, plasma, IV bolus 10 mg/kg, mean, read-out: Vdss (IV bolus)
# Vd >= 3 L/kg gives 1, anything below gives -1

Field: example entries. Status: answers known.
Input line: Could you tell me if the measured Vd of Cn1c2cccc(C(N)=O)c2c(=O)n1C1CCN(CC2CC=CCC2)CC1 (centres unmarked) reaches 3 L/kg or more?
Output line: 1

Input line: Could you tell me if the measured Vd of `NC(=O)c1cccc2[nH]n(C3CCN(C4CCCCC4)CC3)c(=O)c12` reaches 3 L/kg or more?
Output line: -1

Further cases:
Input line: Could you tell me if the measured Vd of `Cn1c2cccc(C(N)=O)c2c(=O)n1C1CCN(C2CCC(F)(F)CC2)CC1` reaches 3 L/kg or more?
Output line: -1

Input line: Could you tell me if the measured Vd of `Cn1c2cccc(C(N)=O)c2c(=O)n1C1CCN(C2CCCCC2)CC1` reaches 3 L/kg or more?
Output line: 1

Input line: Could you tell me if the measured Vd of `Cn1c2cc(F)cc(C(N)=O)c2c(=O)n1C1CCN(C2CCCCC2)CC1` reaches 3 L/kg or more?
Output line: 1
